- TARGET_UNDER_TEST: PD-1/PD-L1 interaction (Homo sapiens, UniProt Q9NZQ7)
- Construct: expressed in transfected cells; host or cells: CHO cells (aAPC-PD-L1) co-cultured with Jurkat cells overexpressing PD-1 and an NFAT-luciferase reporter
- Sequence (Q9NZQ7 19-290): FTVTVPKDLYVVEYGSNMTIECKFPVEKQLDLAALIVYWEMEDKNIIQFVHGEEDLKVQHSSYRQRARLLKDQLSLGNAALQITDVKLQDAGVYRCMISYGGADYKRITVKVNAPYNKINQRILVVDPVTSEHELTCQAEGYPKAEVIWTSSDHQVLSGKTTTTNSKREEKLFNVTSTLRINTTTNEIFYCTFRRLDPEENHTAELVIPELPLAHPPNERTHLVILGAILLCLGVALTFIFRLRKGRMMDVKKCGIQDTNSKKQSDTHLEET
- ASSAY: PD-1/PD-L1 NFAT reporter co-culture assay
- Format: cell-based
- COND: Jurkat PD-1 NFAT-luciferase cells co-cultured with aAPC-PD-L1 CHO cells, 6 hrs at 37° C.; read-out: EC50 NFAT Luciferase
REPORTED_ENDPOINT: EC50 (nM)

Worked examples follow.
Cc1c(COc2cc(OCc3cncc(C#N)c3)c(CNC[C@@H](O)CC(=O)O)cc2Cl)cccc1-c1cccc(-c2cc3c(cc2F)C(N(C)C)CC3)c1C (stereo partly drawn) [Example 372]	860
Cc1c(COc2cc(OCc3cncc(C#N)c3)c(CNC[C@@H](O)CC(=O)O)cc2Cl)cccc1-c1cccc(-c2ccc3c(CNC[C@@H](O)CC(=O)O)cccc3c2)c1C [Example 293]	73
Cc1c(COc2cc(OCc3cncc(C(=O)O)c3)c(CN[C@@](C)(CO)C(=O)O)cc2Cl)cccc1-c1cccc(-c2ccc(OCCN3CC[C@@H](O)C3)cc2)c1C [Example 522]	195
COc1nc(OCc2cccc(-c3cccc(COc4nc(OC)c(CN[C@H](C)C(=O)O)cc4Cl)c3C)c2C)c(Cl)cc1CN[C@H](C)C(=O)O [Example 90]	113
COc1nc(OCc2cccc(-c3cccc(COc4ccc(CNCCO)c(OC)n4)c3Cl)c2Cl)ccc1CNCCO [Example 186]	1510

[A] COc1nc(OCc2cccc(-c3cccc(COc4nc(OC)c(CN[C@H]5CCCC[C@@H]5O)cc4Cl)c3C)c2C)c(Cl)cc1CN[C@H]1CCCC[C@@H]1O [Example 229]
[B] Cc1c(COc2cc(OCc3cncc(C#N)c3)c(CNC[C@@H](O)CC(=O)O)cc2Cl)cccc1-c1cccc(-c2ccc(N3CCNCC3)cc2)c1C [Example 339]
[C] Cc1c(COc2cc(OCc3cncc(C#N)c3)c(CNC[C@@H](O)CC(=O)O)cc2Cl)cccc1-c1cccc(-c2ccc(OCCNC[C@@H](O)CC(=O)O)cn2)c1C [Example 112]
[D] Cc1c(COc2cc(OCc3cncc(C#N)c3)c(CNC[C@@H](O)CC(=O)O)cc2Cl)cccc1-c1cccc(-c2ccc3c(c2)CC(NCC(=O)O)C3)c1C (stereo partly drawn) [Example 474]
[E] COc1nc(O[C@H]2CCc3c(-c4cccc(-c5cnc(CN[C@@H]6CCC[C@@H]6O)c(OC)n5)c4Cl)cccc32)c(Cl)cc1CN[C@@H]1CCC[C@@H]1O [Example 643]
(Q) Give the ascending ranking of the items by reported EC50. Write the labels, ordered according to the request.
(A) D, E, C, A, B
(D: 59 nM, E: 89 nM, C: 286 nM, A: 1220 nM, B: 2220 nM)

[a] COc1nc(OCc2cccc(-c3cccc(COc4nc(OC)c(CN5CC[C@@H](O)C[C@H]5C(=O)O)cc4Cl)c3C)c2C)c(Cl)cc1CN1CC[C@@H](O)C[C@H]1C(=O)O [Example 47]
[b] COc1cc(-c2cccc(-c3cccc(-c4cnc(C5=NCCN5)c(OC)c4)c3Cl)c2Cl)cnc1C1=NCCN1 [Example 630]
(Q) Select one. Lower EC50: a or b Answer = label.
(A) b
(b: 165 nM, a: 503 nM)
